System: HCT-8
Experiment Description: Cytotoxicity against human HCT8 cells by sulforhodamine B assay
Type: functional
Setup Conditions: read-out: ED50 (the source's name)
Quantity Measured: log10 EC50 (log10 of the value in µg/mL)
All values: log10 EC50 [µg/mL].

Take a look at these entries with their results.
Smi	log10 EC50
CCC1=C(O)c2c(occ(-c3ccccc3)c2=O)C(CC)(CC)C1=O	1.08
CCC1=C(O)c2c(oc(-c3cc4ccccc4c4ccccc34)cc2=O)C(CC)(CC)C1=O	0.75
CC[C@]1(O)C[C@H]2CN(CCc3c([nH]c4ccccc34)[C@@](C(=O)OC)(c3cc4c(cc3OC)N(C=O)[C@H]3[C@@](O)(C(=O)OC)[C@H](OC(C)=O)[C@]5(CC)C=CCN6CC[C@]43[C@@H]65)C2)C1	-1.70

Form field log10 EC50, entry CC1=C(O)c2c(oc(-c3cccc4ccccc34)cc2=O)C(C)(C)C1=O : -0.40

Form field log10 EC50, entry CCC1=C(O)c2c(oc(-c3cccc4ccccc34)cc2=O)C(CC)(CC)C1=O : -0.40

Form field log10 EC50, entry CCC1=C(O)c2c(oc(-c3ccc(C)cc3)cc2=O)C(CC)(CC)C1=O : 1.18

FYI, the data here is from ChEMBL document CHEMBL1150376.
